system: MS2 coat protein; experiment: apparent KD of MS2 coat protein; higher = weaker reporter binding; details: Eterna round: R107; input ligand: arginine 13.2 mM
Label criterion met when apparent KD of MS2 coat protein is at or above 20 nM; anything below gets criterion not met.

- Record sequence: "UCGGGCAGAGCGGCCGCCACUGUAAGGCGUGCGGAUGACGGAACAUGAGGAUCACCCAUGUUGUUUAGGACCGGGCUUGCGGCGA [nynullin]"
  Label: "criterion met"
- Record sequence: "AUCACUGUGAAAGAUACCAGCGCCCUACCUAUCUUCUGUUACAUGAGGAUCACCCAUGUUCGCCCUUGGCAGCUUGAGAUGGAUC [theeternabot_exclusion_MS2_Theo_B_11]"
  Label: "criterion met"
- Record sequence: "UUAAUCAUUAUAGAAAACUAUAAUGCAGAAGGAGCGUGAUAAAACACAGGUAGGUCGCUGAAGGGAACAUGAGGAUCACCCAUGU [AstrosSSArgA#6]"
  Label: "criterion met"
- Record sequence: "UGGGCAUACAUGAGGAUCACCCAUGUAGAUACCAGCACUAGCCUGUGCCCUUGGCAGCUAACCGGGUCGAGAACUUAGUGCUCCU [Lexele]"
  Label: "criterion not met"
- Record sequence: "GAUGAACUAUUUGAUACCAGACAACAUGAGGAUCACCCAUGUGCGCGUCGUCCUCUGCCUGUCCCUUGGCAGCGGAUAGUUUAUC [XTheo B #12]"
  Label: "criterion met"

Field: next sequence
Problem: Form field: apparent KD of MS2 coat protein at least 20 nM? Entry: ACGUCACGUUUACUCGUGGUUUCGUUCGAUACCAGUAGCGAGAGUUACCCUUGGCAGCGACAUGAGGAUCACCCAUGUACGAAGA [XTheo A #24]
Result: criterion not met

* * *

system: K4 kissing-loop RNA reporter; assay: apparent KD of K4 kissing-loop reporter; higher = weaker reporter binding; conditions: Eterna round: R107; input ligand: FMN 200 uM;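 note: bound reporter read as fluorescence of individual clusters on recovered sequencing chips by microscopy, with normalized cluster intensities fitted with a binding model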
Label Fulfilled when apparent KD of K4 kissing-loop reporter is at or above 200 nM; anything below gets Not fulfilled.

- Record sequence: "AGAGUUAAUUAGUCUUUUUUUACAUUAAGUCAGGAUAUCGUAUAUUCGAGAAGGGACACAUGCUAGUGAUGUUAGCUAUUUCUCA [JR_Nu_ExcFMNA_Sub019]"
  Label: "Not fulfilled"
- Record sequence: "AAGCAGUCACGCGAAGCCAUCGAAGAUGGCCGAGGACCGGUACGGCCGCCACUCGGAGUGAUGUUCCGAAGACUGCAAAAUAAAA"
  Label: "Fulfilled"
- Record sequence: "UACUAUAUUCUGUCGUUUUUAUUAGUUUGUCAGGAUAUCGUUUAUUCGAGAAGGGACACUGUCUAGUGAUGUUAGACAUUUCUUU [#04 K4 FMN A Exclusion]"
  Label: "Not fulfilled"
- Record sequence: "UCUGAAGGUGGAGGAUAUUGAUUGAAUCUUGGUCAGGAGUGAUGUUCCGGGAAGCCUUGGAUUCAUCGAGAAGGCCAAGGAUAGU [#10 K4 FMN B Same State]"
  Label: "Not fulfilled"
- Record sequence: "CCCUCACGAGUGAUGUUCGUAGGGUACAGUCAGGAUAUCAUGCGGUUGAGAAGGGACAGAGAAGGCGGCCACGGGUUGCUUAUCU [Ussoat]"
  Label: "Fulfilled"
- Record sequence: "UGUCAUUGGUCGGCCGCCACUAGGACCGGGUUUUACCUAGUGAUGUUAGUAUAAACGGCCGCCACUAGGACCGGGACCGAUGACU [KL-SSTryp-B24 #DoubleAptamer]"
  Label: "Fulfilled"

Problem: Form field: apparent KD of K4 kissing-loop reporter at least 200 nM? Entry: UUUAUAAGGUCGGCCGCCACUGGAUUUAUGUUUGUUUCGUCUGGAUCAAAGUGAUGUUUUGAGUCCAGGACCGGGACAUUUGUUA [whbob_Ex_Tryp_B_w39]
Result: Not fulfilled

Problem: Form field: apparent KD of K4 kissing-loop reporter at least 200 nM? Entry: GGAUAGGACAAAGGAUAUGGUAGUGAUGUUACCAAACUGGUUAAACAUGUCAGAAAACUGGCAUGACCAGAAGGUUGUCCUAUCG [FmnBX 27 A11+U75]
Result: Not fulfilled

Problem: Form field: apparent KD of K4 kissing-loop reporter at least 200 nM? Entry: GAGGUACAGGCGGCCGCCACUAGUGAUGUUAGUGAUAAAAGAUAUAGUAAAUAUCGGCAUGUAGAUAGGACCGGGCCUGAUGGAG [ptvcmullin]
Result: Fulfilled

Problem: Form field: apparent KD of K4 kissing-loop reporter at least 200 nM? Entry: AAGUCACAGGCAGGAUAUGCUUAGUAAUAAGGCCAUAUAUACGUAUAGAGUGAUGUUUUGUACCAGGCAGAAGGGCUACAUCCGU [FMN B Excl V3 (+2GCs)]
Result: Fulfilled

Problem: Form field: apparent KD of K4 kissing-loop reporter at least 200 nM? Entry: AAAUGCAGCAAACGAGUGAUGUUCGACGAUACCAGCCUCGAUAGAGGCCCUUGGCAGCGUACAUCAAAGCCAAGGGCUGCUAAAA [#SwitchBubble 3]
Result: Fulfilled

Problem: Form field: apparent KD of K4 kissing-loop reporter at least 200 nM? Entry: AGUGAUAUAUGAGGAUAUGGGUUAAUUAGUGAGUGAUUUUUAGUGUUGUUUGAUUAGUGAUGUUAUUUAGAAGGCGUGAGUGAUG [mvvmjmullin]
Result: Not fulfilled
